Entries annotated with measured kon
assay_system: T1, macaca IL6R-his protein (macaca mulatta)
T1 chain: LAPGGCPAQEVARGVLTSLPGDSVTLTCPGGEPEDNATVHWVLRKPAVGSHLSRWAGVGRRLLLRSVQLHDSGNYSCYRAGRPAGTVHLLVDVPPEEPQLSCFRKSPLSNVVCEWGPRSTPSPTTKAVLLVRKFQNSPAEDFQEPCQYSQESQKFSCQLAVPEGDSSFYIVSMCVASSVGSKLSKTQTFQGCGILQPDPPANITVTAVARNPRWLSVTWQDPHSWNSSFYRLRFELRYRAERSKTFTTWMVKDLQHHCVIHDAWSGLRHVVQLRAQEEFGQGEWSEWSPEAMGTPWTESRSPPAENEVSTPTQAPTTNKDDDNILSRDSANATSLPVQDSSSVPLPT
protocol_notes: SPR Biacore T200; mAb captured by anti-mouse IgG on CM5, antigen in flow, 1:1 fit
Just the number in M⁻¹ s⁻¹, nothing appended.

Past entries and their recorded results:
{"binder": "mouse anti-IL6R monoclonal antibody 1A3 (antibody, V domains shown, Mouse hybridoma mAb purified on Protein A) VH: QVQLQQPGAELVKPGASVKLSCKASGYTFTSYWMHWVKQRPAQGLEWIGEINPSNGRTNFNEKFKTKATLTVDKSSNTAYMQLSSLTSEDSAVYSCLRLNTHYVFDYWGQGTTLTVSS VL: EIVLTQSPTTMAASPGEKITITCSASSSISSNYLHWYQQKPGFSPKLLISRTSNLASGVPTRFSGSGSGTSYSLTIGTMEAGDVATYYCQQGSGIPFTFGSGTKLEIK", "reported_measurement": 139000}
{"binder": "mouse anti-IL6R monoclonal antibody 1F7 (antibody, V domains shown, Mouse hybridoma mAb) VH: QVQLQQPGAELVKPGASVKLSCKASDYTFTSYWMHWVKQRPGQGLEWIGEINPSNGRTNYNEKFKNKATLTVDKSSSTAYVQLYSLTSEDSAVYYCARLSIHYVFDYWGQGTTLTVSS VL: ELVLTQSPTTMAASPGEKITFTCSASSSISSNYLHWYQQKPGFSPKLLISGTSNLASGVPPRFSGSGSGTSYSLTIVTMEAEDVATYYCQQGSGIPFTFGSGTKLEIK", "reported_measurement": 124000}

Endpoint output: kon of mouse anti-IL6R monoclonal antibody 3C2 (antibody, V domains shown, Mouse hybridoma mAb) VH: QVQLQQPGTELVKPGASVKLSCKASGYTFTTYWIHWVKQRPGQGLEWIGEINPSNGRTNYNEHFKSKATLTVDKSSSTASMQLSSLTSADSAVYYCARLNTHYVFDSWGQGTTLTVSS VL: EIVLTQSPTTMAASPGEKITITCSASSSISSNYLHWYQQKPGFSPKLLIYRTSNLASGVPTHFSGSGSGTSYSLTIGTMEAEDVATYYCQQGSGIPFTFGSGTKLEIK . Value?
130000

Note, next up: mouse anti-IL6R monoclonal antibody 1D4 (antibody, V domains shown, Mouse hybridoma mAb) VH: QVQLQQPGAELVKPGASVKLSCKASGYTFTSYWMHWVKVRPGQGLEWIGEINPTNGRTNYNEDFKSKATLTVNSSSSTAYMQLSSLTSEDSAVYYCARLNTHYVFDYWGQGTTLTVSS VL: EIVLTQSPTILAASPGEKITFTCSVSSSISSNYLHWYQQKPGFSPKLLIYRTSNLASGVPARFSGSGSGTSYSLTIGTMEAEDVATYYCQQGSGIPFTFGSGTKLEIK
123000

Note, next up: mouse anti-IL6R monoclonal antibody 1G1 (antibody, V domains shown, Mouse hybridoma mAb) VH: QVQLQQPGAELVKPGASVKLSCKASGYTFTSYWMHWVKVRPGQGLEWIGEINPTNGRTNYNEDFKSKATLTVESSSSTAYMQFSSLTSEDSAVYYCARLNTHYVFDYWGQGTTLTVSS VL: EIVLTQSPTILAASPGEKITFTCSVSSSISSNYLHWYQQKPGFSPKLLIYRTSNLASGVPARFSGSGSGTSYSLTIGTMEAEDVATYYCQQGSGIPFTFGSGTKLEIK
120000

Note, next up: mouse anti-IL6R monoclonal antibody 1B5 (antibody, V domains shown, Mouse hybridoma mAb) VH: QVQLQQPGAELVKPGASVKLSCKASGYTFTSYWMHWVKQRPGQGLEWIGEINPSNGRTNYNENFKSKATLTVDKSSSTAYMQLSSLTSEDSAVYYCARLNTHYVFDYWGQGTTLTVSS VL: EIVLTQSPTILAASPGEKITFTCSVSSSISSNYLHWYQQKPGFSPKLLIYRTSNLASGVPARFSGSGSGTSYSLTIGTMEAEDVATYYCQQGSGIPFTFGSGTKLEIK
129000
